- Test system: Treponema isolate
- assay.text: Antimicrobial susceptibility test (MICROSCAN plates) of a patient's Treponema isolate
- Type: cell-based
- run.conditions: Treponema infected patient's isolate; MICROSCAN plates, 35° C., 16-20 hours
endpoint.name: RESULT (antibiotic susceptibility)

{"columns": ["compound", "measurement.target", "endpoint.name", "result"],
 "data": [
  ["C[C@@H](O)[C@H]1C(=O)N2C(C(=O)O)=C(S[C@@H]3CN[C@H](C(=O)N(C)C)C3)[C@H](C)[C@H]12 [Meropenem]", "Treponema isolate", "RESULT (antibiotic susceptibility)", "Resistant"],
  ["Cc1nnc(SCC2=C(C(=O)O)N3C(=O)[C@@H](NC(=O)Cn4cnnn4)[C@H]3SC2)s1 [Cefazolin]", "Treponema isolate", "RESULT (antibiotic susceptibility)", "Resistant"],
  ["CCN1CCN(C(=O)N[C@@H](C(=O)N[C@@H]2C(=O)N3[C@@H]2SC(C)(C)[C@@H]3C(=O)O)c2ccccc2)C(=O)C1=O [Piperacillin]", "Treponema isolate", "RESULT (antibiotic susceptibility)", "Susceptible"],
  ["C[C@H]1[C@H](NC(=O)/C(=N\\OC(C)(C)C(=O)O)c2csc(N)n2)C(=O)N1S(=O)(=O)O [Aztreonam]", "Treponema isolate", "RESULT (antibiotic susceptibility)", "Susceptible"],
  ["CC1(C)S[C@@H]2[C@H](NC(=O)[C@H](NC(=O)N3CCN(S(C)(=O)=O)C3=O)c3ccccc3)C(=O)N2[C@H]1C(=O)O [Mezlocillin]", "Treponema isolate", "RESULT (antibiotic susceptibility)", "Susceptible"],
  ["O=C(O)c1cn(C2CC2)c2cc(N3CCNCC3)c(F)cc2c1=O [Ciprofloxacin]", "Treponema isolate", "RESULT (antibiotic susceptibility)", "Resistant"]
]}

From here, focus on the item given below.
QUERY: What value of RESULT (antibiotic susceptibility) has been reported for the following compound? CC1(C)S[C@@H]2[C@H](NC(=O)[C@H](N)c3ccccc3)C(=O)N2[C@H]1C(=O)O [Ampicillin]
RESULT: Susceptible

* * *

- Test system: Y. entero gp.
- assay.text: Antibiotic susceptibility test (MICROSCAN or disc diffusion), control organism Y. entero gp.
- Format: cell-based
- run.conditions: total isolates 1
endpoint.name: Antibiotic Susceptibility Test Results, Y. entero gp.

Take a look at these entries with their results.
{"columns": ["compound", "result"],
 "data": [
  ["C[C@@H](O)[C@H]1C(=O)N2C(C(=O)O)=C(SCCN=CN)C[C@H]12 [Imipenem]", "100%"],
  ["NCC[C@H](O)C(=O)N[C@@H]1C[C@H](N)[C@@H](O[C@H]2O[C@H](CN)[C@@H](O)[C@H](O)[C@H]2O)[C@H](O)[C@H]1O[C@H]1O[C@H](CO)[C@@H](O)[C@H](N)[C@H]1O [Amikacin]", "100%"]
]}

Could you now consider this next compound?
QUERY: Hello, I am looking for reported Antibiotic Susceptibility Test Results, Y. entero gp. with Y. entero gp. for C[C@H]1COc2c(N3CCN(C)CC3)c(F)cc3c(=O)c(C(=O)O)cn1c23 [Levofloxacin] . Could you help?
RESULT: 100%

* * *

- Test system: Treponema isolate
- assay.text: Antimicrobial susceptibility test (MICROSCAN plates) of a patient's Treponema isolate
- Format: cell-based
- run.conditions: Treponema infected patient's isolate; MICROSCAN plates, 35° C., 16-20 hours
endpoint.name: RESULT (antibiotic susceptibility)

{"columns": ["smiles.str", "result"],
 "data": [
  ["CC1(C)S[C@@H]2[C@H](NC(=O)[C@H](C(=O)O)c3ccsc3)C(=O)N2[C@H]1C(=O)O", "Susceptible"],
  ["CN(C)[C@@H]1C(O)=C(C(N)=O)C(=O)[C@@]2(O)C(O)=C3C(=O)c4c(O)cccc4[C@@](C)(O)[C@H]3C[C@@H]12", "Resistant"],
  ["CCN[C@@H]1C[C@H](N)[C@@H](O[C@H]2OC(CN)=CC[C@H]2N)[C@H](O)[C@H]1O[C@H]1OC[C@](C)(O)[C@H](NC)[C@H]1O", "Resistant"],
  ["CC(=O)OCC1=C(C(=O)O)N2C(=O)[C@@H](NC(=O)Cc3cccs3)[C@H]2SC1", "Susceptible"]
]}
